Target: PRMT5:MEP50 complex (Homo sapiens)
Sequence (O14744 2-637): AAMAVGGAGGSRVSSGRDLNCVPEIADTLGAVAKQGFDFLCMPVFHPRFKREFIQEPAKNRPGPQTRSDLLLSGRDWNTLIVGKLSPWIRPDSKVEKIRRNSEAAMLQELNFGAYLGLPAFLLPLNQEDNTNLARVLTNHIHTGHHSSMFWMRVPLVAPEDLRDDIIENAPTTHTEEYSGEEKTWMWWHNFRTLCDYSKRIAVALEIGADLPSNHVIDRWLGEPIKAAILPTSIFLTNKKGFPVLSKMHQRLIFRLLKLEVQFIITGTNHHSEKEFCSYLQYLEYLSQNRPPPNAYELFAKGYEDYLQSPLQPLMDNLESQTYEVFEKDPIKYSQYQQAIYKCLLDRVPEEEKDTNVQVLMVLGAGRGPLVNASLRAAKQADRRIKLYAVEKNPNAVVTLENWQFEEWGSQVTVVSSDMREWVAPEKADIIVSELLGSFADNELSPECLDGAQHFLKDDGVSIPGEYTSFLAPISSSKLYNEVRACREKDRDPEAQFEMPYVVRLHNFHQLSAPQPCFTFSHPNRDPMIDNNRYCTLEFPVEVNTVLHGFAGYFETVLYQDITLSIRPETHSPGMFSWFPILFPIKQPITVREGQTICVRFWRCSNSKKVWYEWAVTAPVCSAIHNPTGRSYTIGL
Sequence (Q9BQA1 whole entry partner): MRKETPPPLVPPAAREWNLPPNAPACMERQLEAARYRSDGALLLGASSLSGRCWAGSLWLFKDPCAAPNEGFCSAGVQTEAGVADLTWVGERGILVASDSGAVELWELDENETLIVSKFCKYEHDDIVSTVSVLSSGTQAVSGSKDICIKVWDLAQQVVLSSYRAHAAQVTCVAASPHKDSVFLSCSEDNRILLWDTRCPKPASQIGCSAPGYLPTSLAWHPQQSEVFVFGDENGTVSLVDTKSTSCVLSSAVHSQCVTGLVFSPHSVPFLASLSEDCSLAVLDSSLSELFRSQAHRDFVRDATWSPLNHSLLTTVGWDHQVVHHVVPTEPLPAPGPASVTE
Experiment: SPR
Assay type: binding
parameter: Kd (µM)
State the answer as a number, implicitly in µM.

Asked: Given the entry O=c1oc2c(O)c(O)cc3c(=O)oc4c(O)c(O)cc1c4c23 , report its measured Kd.
Given back: 65.4

###

Molecular target: EZH2 (Homo sapiens, UniProt Q15910)
Sequence (Q15910 whole entry): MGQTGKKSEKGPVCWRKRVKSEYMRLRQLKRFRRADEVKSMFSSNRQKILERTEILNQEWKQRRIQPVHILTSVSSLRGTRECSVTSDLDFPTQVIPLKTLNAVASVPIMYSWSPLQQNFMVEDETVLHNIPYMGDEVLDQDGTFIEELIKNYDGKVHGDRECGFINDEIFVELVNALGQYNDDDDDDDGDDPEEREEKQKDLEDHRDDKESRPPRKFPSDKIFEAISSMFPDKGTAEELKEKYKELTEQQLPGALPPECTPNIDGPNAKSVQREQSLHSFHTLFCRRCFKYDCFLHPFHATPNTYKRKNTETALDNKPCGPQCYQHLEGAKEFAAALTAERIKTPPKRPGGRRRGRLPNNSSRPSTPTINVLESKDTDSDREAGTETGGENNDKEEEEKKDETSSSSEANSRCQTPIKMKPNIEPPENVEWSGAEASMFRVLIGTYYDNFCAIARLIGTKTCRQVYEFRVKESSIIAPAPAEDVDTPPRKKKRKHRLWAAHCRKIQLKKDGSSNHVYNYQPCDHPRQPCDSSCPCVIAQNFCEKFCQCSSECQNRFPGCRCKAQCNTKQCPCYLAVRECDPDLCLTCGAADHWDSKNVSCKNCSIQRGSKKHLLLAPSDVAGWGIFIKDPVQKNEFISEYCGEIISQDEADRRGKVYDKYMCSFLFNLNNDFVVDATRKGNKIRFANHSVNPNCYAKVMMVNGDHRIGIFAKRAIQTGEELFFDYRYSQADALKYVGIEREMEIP
parameter: Kd (µM)
State the answer as a number, implicitly in µM.

Asked: Given the entry O=c1oc2c(O)c(O)cc3c(=O)oc4c(O)c(O)cc1c4c23 [Ellagic acid] , report its measured Kd.
Given back: 3.28
